- measurement.target: T1, murine PILRB, ectopically expressed on 293 cells (murine, UniProt Q2YFS2 29-224)
- T1 construct: whole, on cells; also called mB
- T1 sequence (Q2YFS2 29-224): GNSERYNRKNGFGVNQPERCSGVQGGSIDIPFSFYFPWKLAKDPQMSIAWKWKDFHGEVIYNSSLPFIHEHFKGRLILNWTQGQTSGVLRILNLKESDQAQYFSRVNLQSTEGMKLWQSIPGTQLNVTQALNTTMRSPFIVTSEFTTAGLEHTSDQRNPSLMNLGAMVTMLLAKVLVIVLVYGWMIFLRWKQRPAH
- procedure.text: flow cytometry, 293 cells expressing target
test.readout: binding result

D8 (antibody, V domains shown, second hybridoma campaign; same VH/VL as D6) VH: EVQLQQSGPELVKPGASVKMSCKASGYTFTDYYMDWVKQSHGESFEWIGRVNPYTGDSSYNQKFKGKATLTVDKSSNTAYLEFNSLTSEGSAVYYCARSDGYHYKYAMDYWGQGTSVTVSS VL: DVVMTQTPLSLPVSLGDQASISCRSSQSLVHSTGNTYLHWYLQKPGQSPNLLIYKISNRFSGVPDRFSGSGSGTDFTLKISRVEAEDLGVYFCSQSTHVPYTFGGGTKLEIK : no binding
A12 (antibody, V domains shown, phage campaign) VH: QVQLVQSGAEVKKPGASVKVSCKASGYNFNDYYIHWVRQAPGQGLEWMGWISAYNGNTNYAQKLQGRVTMTRDTSTSTVYMELSSLRSEDTAVYYCARDGWYCSSSSCYTGSDYWGQGTLVTVSS VL: DIQMTQSPSSLSASVGDRVTITCRASQSISNYLNWYQQKPGKAPKLLIYGASTLHSGVPSRFSGSGSGTDFTLTISSLQPEDFATYYCQQSYSTPFTFGPGTKVDIK : no binding
A2 (antibody, V domains shown, phage campaign) VH: EVQLLESGGGLVKPGGSLRLSCAASGFTFSDYYMSWVRQAPGKGLEWVSSISIGGGGTYYADSVKGRFTISRDDSKNTLYLQMNSLRAEDTAVYYCASHGFGARKMDFWGQGTTVTVSS VL: DIQMTQSPSSLSASVGDRVTITCRASQSIRSYVNWYQQKPGKAPKLLIYDASNLETGVPSRFSGSGSGTDFTLTISSLQPEDFATYYCQQSYSPPITFGQGTKVEIK : no binding
